- Test system: Klebsiella pneumoniae
- condition details: K. pneumoniae FADDI-KP032
Positions of bridges follow the written chain, without caps; N, C: chain ends. Non-standard residues stand in square brackets, D forms with d. Residues, ends and D or L forms follow the SMILES beside them. *: point of attachment. Benzoyl(3-Ph) = O=C(c1cccc(-c2ccccc2)c1)*; Phenylacetyl(3-Cl) = O=C(Cc1cccc(Cl)c1)*; Dab = NCC[C@H](N)C(=O)O; Abu = CC[C@H](N)C(=O)O; Dap = NC[C@H](N)C(=O)O; PhAc = O=C(Cc1ccccc1)*

[
  {
    "compound": "CC[C@@H]1NC(=O)[C@@H](CC(C)C)NC(=O)[C@H](CCN)NC(=O)[C@@H](NC(=O)[C@H](CN)NC(=O)[C@@H](NC(=O)[C@H](CCN)NC(=O)c2cccc(-c3ccccc3)c2)[C@@H](C)O)CCNC(=O)[C@H]([C@@H](C)O)NC(=O)[C@H](CCN)NC(=O)[C@H](CCN)NC1=O [Compound 138] ({Benzoyl(3-Ph)}-[Dab]T[Dap][Dab][Dab][dL][Abu][Dab][Dab]T; lactam 4-C)",
    "MIC": "0.5 µg/mL"
  },
  {
    "compound": "CC(C)C[C@H]1NC(=O)[C@H](CCN)NC(=O)[C@@H](NC(=O)[C@H](CCN)NC(=O)[C@@H](NC(=O)[C@H](CCN)NC(=O)Cc2ccccc2)[C@@H](C)O)CCNC(=O)[C@H]([C@@H](C)O)NC(=O)[C@H](CCN)NC(=O)[C@H](CCN)NC(=O)[C@H]([C@@H](C)O)NC1=O [Compound 30] (PhAc-[Dab]T[Dab][Dab][Dab][dL]T[Dab][Dab]T; lactam 4-C)",
    "MIC": "1 µg/mL"
  },
  {
    "compound": "CC(C)C[C@H]1NC(=O)[C@H](CCN)NC(=O)[C@@H](NC(=O)[C@H](CN)NC(=O)[C@@H](NC(=O)[C@H](CCN)NC(=O)Cc2cccc(Cl)c2)[C@@H](C)O)CCNC(=O)[C@H]([C@@H](C)O)NC(=O)[C@H](CCN)NC(=O)[C@H](CCN)NC(=O)[C@H]([C@@H](C)O)NC1=O [Compound 61] ({Phenylacetyl(3-Cl)}-[Dab]T[Dap][Dab][Dab][dL]T[Dab][Dab]T; lactam 4-C)",
    "MIC": "0.25 µg/mL"
  }
]

The values you see were collected from patent USRE48335E1.
